pEC50 for assorted molecules
Molecular target: Melanocyte-stimulating hormone receptor (Homo sapiens, UniProt Q01726)
Sequence (Q01726 whole entry): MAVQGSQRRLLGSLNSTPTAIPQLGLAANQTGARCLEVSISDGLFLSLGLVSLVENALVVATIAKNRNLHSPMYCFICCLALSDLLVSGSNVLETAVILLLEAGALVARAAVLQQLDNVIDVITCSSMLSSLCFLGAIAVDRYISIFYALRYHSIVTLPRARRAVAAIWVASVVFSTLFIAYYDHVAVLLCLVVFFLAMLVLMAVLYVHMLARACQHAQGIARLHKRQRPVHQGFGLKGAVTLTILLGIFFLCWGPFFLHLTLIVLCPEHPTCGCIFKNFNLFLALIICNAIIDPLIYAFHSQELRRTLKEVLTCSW
Test: Agonist activity at human melanocortin receptor (hMC1R).
Type: functional
// pEC50 is dimensionless: -log10 of concentration (M)

[[record]]
molecule = "CCCCC(=O)N[C@H]1CC(=O)NCCCC[C@@H](C(N)=O)NC(=O)[C@H](Cc2c[nH]c3ccccc23)NC(=O)[C@H](CCCN=C(N)N)NC(=O)[C@@H](Cc2ccccc2)NC(=O)[C@@]2(CCc3c(CC)cccc3C2)NC1=O"
target_or_test_system = "Melanocyte-stimulating hormone receptor (Homo sapiens, UniProt Q01726)"
observed = 6.38

[[record]]
molecule = "CCCCC(=O)N[C@H]1CC(=O)NCCCC[C@@H](C(N)=O)NC(=O)[C@H](Cc2c[nH]c3ccccc23)NC(=O)[C@H](CCCNC(=N)N)NC(=O)[C@@H](Cc2ccccc2)NC(=O)C2(CCc3ccc(Br)cc3C2)NC1=O (mixture of isomers)"
target_or_test_system = "Melanocyte-stimulating hormone receptor (Homo sapiens, UniProt Q01726)"
observed = 6.85

[[record]]
molecule = "CCCCC(=O)N[C@H]1CC(=O)NCCCC[C@@H](C(N)=O)NC(=O)[C@H](Cc2c[nH]c3ccccc23)NC(=O)[C@H](CCCN=C(N)N)NC(=O)[C@@H](Cc2ccccc2)NC(=O)[C@@]2(CCc3ccccc3C2)NC1=O (mixture of isomers)"
target_or_test_system = "Melanocyte-stimulating hormone receptor (Homo sapiens, UniProt Q01726)"
observed = 6.05


**Query** Give pEC50 for the following molecule: CCCCC(=O)N[C@H]1CC(=O)NCCCC[C@@H](C(N)=O)NC(=O)[C@H](Cc2c[nH]c3ccccc23)NC(=O)[C@H](CCCNC(=N)N)NC(=O)[C@@H](Cc2ccccc2)NC(=O)C2(CCc3c(cccc3OCC)C2)NC1=O (mixture of isomers)
**Result** 5.89

**Query** Indicate its recorded pEC50; the molecule in question is CCCCC(=O)N[C@H]1CC(=O)NCCCC[C@@H](C(N)=O)NC(=O)[C@H](Cc2c[nH]c3ccccc23)NC(=O)[C@H](CCCN=C(N)N)NC(=O)[C@@H](Cc2ccccc2)NC(=O)C2(CCc3c(cccc3OC(C)C)C2)NC1=O (mixture of isomers)
**Result** 5.88

====

Target: Melanocortin receptor 4 (Homo sapiens)
Sequence (P32245 whole entry): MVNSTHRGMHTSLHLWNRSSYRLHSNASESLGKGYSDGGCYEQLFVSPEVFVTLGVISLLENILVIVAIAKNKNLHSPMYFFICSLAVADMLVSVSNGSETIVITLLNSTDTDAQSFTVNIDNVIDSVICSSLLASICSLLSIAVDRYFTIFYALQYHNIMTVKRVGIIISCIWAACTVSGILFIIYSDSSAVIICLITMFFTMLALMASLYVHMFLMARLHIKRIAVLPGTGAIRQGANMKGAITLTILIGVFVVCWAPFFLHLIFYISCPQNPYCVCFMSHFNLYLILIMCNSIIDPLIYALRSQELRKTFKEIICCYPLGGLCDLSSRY
Test: Agonist activity at human melanocortin receptor (hMC4R).
Format: functional
Each entry below carries its recorded EC50.
I only need the number, in nM, no unit after it.

[[record]]
compound = "CCCCC(=O)N[C@H]1CC(=O)NCCCC[C@@H](C(N)=O)NC(=O)[C@H](Cc2c[nH]c3ccccc23)NC(=O)[C@H](CCCN=C(N)N)NC(=O)[C@@H](Cc2ccccc2)NC(=O)C2(CCc3c(Br)cccc3C2)NC1=O (single isomer, unassigned; form 2)"
measurement_label = "EC50"
result_units = "nM"
observed = 41

[[record]]
compound = "CCCCC(=O)N[C@H]1CC(=O)NCCCC[C@@H](C(N)=O)NC(=O)[C@H](Cc2c[nH]c3ccccc23)NC(=O)[C@H](CCCN=C(N)N)NC(=O)[C@@H](Cc2ccccc2)NC(=O)[C@@]2(CCc3c(C)cccc3C2)NC1=O (mixture of isomers)"
measurement_label = "EC50"
result_units = "nM"
observed = 25


**Query** Give EC50 only, for CCCCC(=O)N[C@H]1CC(=O)NCCCC[C@@H](C(N)=O)NC(=O)[C@H](Cc2c[nH]c3ccccc23)NC(=O)[C@H](CCCN=C(N)N)NC(=O)[C@@H](Cc2ccccc2)NC(=O)[C@H](Cc2ccc(C(F)(F)F)cc2)NC1=O , using Melanocortin receptor 4 (Homo sapiens) data.
**Result** 2

**Query** State EC50 (Melanocortin receptor 4 (Homo sapiens)) of CCCCC(=O)N[C@H]1CC(=O)NCCCC[C@@H](C(N)=O)NC(=O)[C@H](Cc2c[nH]c3ccccc23)NC(=O)[C@H](CCCN=C(N)N)NC(=O)[C@@H](Cc2ccccc2)NC(=O)C2(CCc3c(Br)cccc3C2)NC1=O (single isomer, unassigned; form 1) .
**Result** 15
